Listed below: KIDNEY_L values for each entry.
- Species on record: Rattus norvegicus
- assay-summary: Open TG-GATES - Regimen: Daily Repeat
- Type: toxicity, organism-based, Sprague-Dawley
- Set-up: regimen Daily Repeat, gender Male, age 6 weeks
- condition: in vivo, po, 0 mg/kg, […], tissue Kidney, route gavage, dose level Control, time 28 day
measured-quantity: KIDNEY_L (g)

{"columns": ["compound", "measured-quantity", "measured-result"],
 "data": [
  ["O=C(O)c1cc(/N=N/c2ccc(S(=O)(=O)Nc3ccccn3)cc2)ccc1O [SULFASALAZINE]", "KIDNEY_L", 1.3],
  ["COc1ccc2c(c1)c(CC(=O)O)c(C)n2C(=O)c1ccc(Cl)cc1 [INDOMETHACIN]", "KIDNEY_L", 1.5],
  ["Cn1c(=O)c2[nH]cnc2n(C)c1=O.O [THEOPHYLLINE]", "KIDNEY_L", 1.4],
  ["C[C@H](CS)C(=O)N1CCC[C@H]1C(=O)O [CAPTOPRIL]", "KIDNEY_L", 1.4],
  ["Clc1ccccc1CN1CCc2sccc2C1 [TICLOPIDINE]", "KIDNEY_L", 1.4],
  ["O=C(O)c1cn(C2CC2)c2cc(N3CCNCC3)c(F)cc2c1=O [CIPROFLOXACIN]", "KIDNEY_L", 1.3],
  ["CC(=O)Oc1ccccc1C(=O)O [ASPIRIN]", "KIDNEY_L", 1.4],
  ["NC(=O)N1c2ccccc2C=Cc2ccccc21 [CARBAMAZEPINE]", "KIDNEY_L", 1.4],
  ["CN(C)CCC=C1c2ccccc2CCc2ccccc21 [AMITRIPTYLINE]", "KIDNEY_L", 1.4],
  ["CCc1cc(C(N)=S)ccn1 [ETHIONAMIDE]", "KIDNEY_L", 1.6]
]}
